What RAW cell viability was measured for each of the following?
Test system: RAW 264.7 cells
Experiment: MTT assay, viability of RAW 264.7 cells
Type: cell-based
Conditions: compound diluted to 30 mol/L (so in the source), 12 h
Description: The effect of the compound to be tested on viability of RAW 264.7 cells at a concentration of […] was assessed through MTT assay (Methylthiazolyldiphenyl-tetrazolium bromide assay), and the inhibition on NO release in the inflammatory response of LPS-induced RAW 264.7 cells at 30 µM was determined through Griess method. Specific methods were described as follows. […]

The value of RAW cell viability measured for the compound CCO[C@]12C[C@H](OC)[C@@]3(OC(=O)C4CCCCC4)CC(C1[C@H]3OC(=O)C1CCCCC1)[C@]13C4[C@@H](OC)C2[C@H]1N(CC)C[C@]4(COC)CC[C@@H]3OC (some centres unmarked) [Compound 5] turned out to be 28.05 ± 4.84 %

The value of RAW cell viability measured for the compound CCO[C@]12C[C@H](OC)[C@@]3(OC(=O)c4ccco4)CC(C1[C@H]3OC(=O)c1ccco1)[C@]13C4[C@@H](OC)C2[C@H]1N(CC)C[C@]4(COC)CC[C@@H]3OC (some centres unmarked) [Compound 6] turned out to be 92.23 ± 1.29 ns %

The value of RAW cell viability measured for the compound CCO[C@]12C[C@H](OC)[C@@]3(OC(=O)c4ccc(F)cc4)CC(C1[C@H]3OC(=O)c1ccc(F)cc1)[C@]13C4[C@@H](OC)C2[C@H]1N(CC)C[C@]4(COC)CC[C@@H]3OC (some centres unmarked) [Compound 59] turned out to be 7.00 ± 1.38 %

The value of RAW cell viability measured for the compound CCO[C@]12C[C@H](OC)[C@@]3(OC(=O)c4ccc(Cl)cc4)CC(C1[C@H]3OC(=O)c1ccc(OC)cc1)[C@]13C4[C@@H](OC)C2[C@H]1N(CC)C[C@]4(COC)CC[C@@H]3OC (some centres unmarked) [Compound 83] turned out to be 85.21 ± 7.83 ^ %

The value of RAW cell viability measured for the compound CCO[C@]12C[C@H](OC)[C@@]3(OC(=O)CC(C)(C)C)CC(C1[C@H]3OC(=O)CC(C)(C)C)[C@]13C4[C@@H](OC)C2[C@H]1N(CC)C[C@]4(COC)CC[C@@H]3OC (some centres unmarked) [Compound 88] turned out to be 74.05 ± 10.06 %

----------
tested on: Kunming mice; experiment: Analgesic activity by acetic acid-induced writhing method (writhing inhibition rate, ED50); assay type: in vivo; settings: Mus musculus, sc; dosing concentration 0.05 mg/kg, subcutaneous, acetic acid-induced writhing, mice; read-out: Analgesia rate (%) ± SEM
READOUT TYPE: inhibition in vivo at 0.05 mg/kg (%)
Response body: numeric value in %, unit text excluded.

The value of inhibition in vivo at 0.05 mg/kg measured for the compound CCO[C@]12C[C@H](OC)[C@@]3(OC(=O)c4ccccc4)CC(C1[C@H]3OC(=O)c1ccccc1)[C@]13C4[C@@H](OC)C2[C@H]1N(CC)C[C@]4(COC)CC[C@@H]3OC (some centres unmarked) turned out to be 47

The value of inhibition in vivo at 0.05 mg/kg measured for the compound CCO[C@]12C[C@H](OC)[C@@]3(OC(=O)c4ccc(F)cc4)CC(C1[C@H]3OC(=O)c1ccc(OC)cc1)[C@]13C4[C@@H](OC)C2[C@H]1N(CC)C[C@]4(COC)CC[C@@H]3OC (some centres unmarked) turned out to be 50

The value of inhibition in vivo at 0.05 mg/kg measured for the compound CCO[C@]12C[C@H](OC)[C@@]3(OC(=O)c4ccco4)CC(C1[C@H]3OC(=O)c1ccc(OC)cc1)[C@]13C4[C@@H](OC)C2[C@H]1N(CC)C[C@]4(COC)CC[C@@H]3OC (some centres unmarked) turned out to be 57.6

The value of inhibition in vivo at 0.05 mg/kg measured for the compound CCO[C@]12C[C@H](OC)[C@@]3(OC(=O)c4cccs4)CC(C1[C@H]3OC(=O)c1cccs1)[C@]13C4[C@@H](OC)C2[C@H]1N(CC)C[C@]4(COC)CC[C@@H]3OC (some centres unmarked) turned out to be 44.4

The value of inhibition in vivo at 0.05 mg/kg measured for the compound CCO[C@]12C[C@H](OC)[C@@]3(OC(=O)c4ccc(OC)cc4)CC(C1[C@H]3OC(=O)c1ccc(OC)cc1)[C@]13C4[C@@H](OC)C2[C@H]1N(CC)C[C@]4(COC)CC[C@@H]3OC (some centres unmarked) turned out to be 49.4

----------
What RAW cell viability was measured for each of the following?
test system: RAW 264.7 cells; test: MTT assay, viability of RAW 264.7 cells; assay type: cell-based; settings: compound diluted to 30 mol/L (so in the source), 12 h
Marks after values point to notes of the source that are not given here.

The molecule CCO[C@]12C[C@H](OC)[C@@]3(OC(=O)c4ccccc4)CC(C1[C@H]3OC(=O)c1ccccc1)[C@]13C4[C@@H](OC)C2[C@H]1N(CC)C[C@]4(COC)CC[C@@H]3OC (stereo partly drawn) , tested on RAW 264.7 cells, showed RAW cell viability of 7.00 ± 0.98 %

The molecule CCO[C@]12C[C@H](OC)[C@@]3(OC(=O)c4ccccc4F)CC(C1[C@H]3OC(=O)c1ccccc1F)[C@]13C4[C@@H](OC)C2[C@H]1N(CC)C[C@]4(COC)CC[C@@H]3OC (stereo partly drawn) , tested on RAW 264.7 cells, showed RAW cell viability of 95.11 ± 5.66 ns %

The molecule CCO[C@]12C[C@H](OC)[C@@]3(OC(=O)c4cccnc4)CC(C1[C@H]3OC(=O)c1ccc(OC)cc1)[C@]13C4[C@@H](OC)C2[C@H]1N(CC)C[C@]4(COC)CC[C@@H]3OC (stereo partly drawn) , tested on RAW 264.7 cells, showed RAW cell viability of 83.03 ± 4.69**^ %

----------
test system: Kunming mice; test: Analgesic activity by acetic acid-induced writhing method (writhing inhibition rate, ED50); type: in vivo; settings: Mus musculus, sc; dosing concentration 0.05 mg/kg, subcutaneous, acetic acid-induced writhing, mice; read-out: Analgesia rate (%) ± SEM
What inhibition in vivo at 0.05 mg/kg was measured for each of the following?
Response body: numeric value in %, unit text excluded.

The value of inhibition in vivo at 0.05 mg/kg measured for the compound CCO[C@]12C[C@H](OC)[C@@]3(OC(=O)c4cccnc4)CC(C1[C@H]3OC(=O)c1cccnc1)[C@]13C4[C@@H](OC)C2[C@H]1N(CC)C[C@]4(COC)CC[C@@H]3OC (some centres unmarked) [Compound 27] turned out to be 62

The value of inhibition in vivo at 0.05 mg/kg measured for the compound CCO[C@]12C[C@H](OC)[C@@]3(OC(=O)C4CCCCC4)CC(C1[C@H]3OC(=O)C1CCCCC1)[C@]13C4[C@@H](OC)C2[C@H]1N(CC)C[C@]4(COC)CC[C@@H]3OC (some centres unmarked) [Compound 5] turned out to be 49.7

The value of inhibition in vivo at 0.05 mg/kg measured for the compound CCO[C@]12C[C@H](OC)[C@@]3(OC(=O)c4cccnc4)CC(C1[C@H]3OC(=O)c1ccc(OC)cc1)[C@]13C4[C@@H](OC)C2[C@H]1N(CC)C[C@]4(COC)CC[C@@H]3OC (some centres unmarked) [Compound 28] turned out to be 36.1

The value of inhibition in vivo at 0.05 mg/kg measured for the compound CCO[C@]12C[C@H](OC)[C@@]3(OC(=O)c4ccc(Cl)cc4)CC(C1[C@H]3OC(=O)c1ccc(OC)cc1)[C@]13C4[C@@H](OC)C2[C@H]1N(CC)C[C@]4(COC)CC[C@@H]3OC (some centres unmarked) [Compound 83] turned out to be 47

The value of inhibition in vivo at 0.05 mg/kg measured for the compound CCO[C@]12C[C@H](OC)[C@@]3(OC(=O)c4ccccc4F)CC(C1[C@H]3OC(=O)c1ccccc1F)[C@]13C4[C@@H](OC)C2[C@H]1N(CC)C[C@]4(COC)CC[C@@H]3OC (some centres unmarked) [Compound 69] turned out to be 40.3

----------
system: Kunming mice; experiment: Analgesic activity by acetic acid-induced writhing method (writhing inhibition rate, ED50); format: in vivo; details: Mus musculus, sc; dosing concentration 0.05 mg/kg, subcutaneous, acetic acid-induced writhing, mice; read-out: Analgesia rate (%) ± SEM
READOUT TYPE: inhibition in vivo at 0.05 mg/kg (%)
Response body: numeric value in %, unit text excluded.

The value of inhibition in vivo at 0.05 mg/kg measured for the molecule CCO[C@]12C[C@H](OC)[C@@]3(OC(=O)CC(C)(C)C)CC(C1[C@H]3OC(=O)CC(C)(C)C)[C@]13C4[C@@H](OC)C2[C@H]1N(CC)C[C@]4(COC)CC[C@@H]3OC (stereo partly drawn) turned out to be 47.7

The value of inhibition in vivo at 0.05 mg/kg measured for the molecule CCO[C@]12C[C@H](OC)[C@@]3(OC(=O)c4ccc([N+](=O)[O-])cc4)CC(C1[C@H]3OC(=O)c1ccc(OC)cc1)[C@]13C4[C@@H](OC)C2[C@H]1N(CC)C[C@]4(COC)CC[C@@H]3OC (stereo partly drawn) turned out to be 51.1

The value of inhibition in vivo at 0.05 mg/kg measured for the molecule CCO[C@]12C[C@H](OC)[C@@]3(OC(=O)C4CCOCC4)CC(C1[C@H]3OC(=O)C1CCOCC1)[C@]13C4[C@@H](OC)C2[C@H]1N(CC)C[C@]4(COC)CC[C@@H]3OC (stereo partly drawn) turned out to be 57.9
